Where do the numbers come from? From patent US6350839B2.

Experiment: Solubility of monomer in water and ethanol
Assay type: physicochemical
Settings: water; read-out: water solubility
Property measured: solubility

Compound	solubility
C=C(COCCP(=O)(O)OC)C(=O)O	> 500 mg/mL

Ask: Requested read-out: solubility. Entry: C=C(COCCP(=O)(O)O)C(=O)O [Comparison monomer, reference compound]
Reply: ~400 mg/mL

----------
Assay: Solubility of monomer in water and ethanol
Type: physicochemical
Details: ethanol, organic solvent or mixture; read-out: solubility in ethanol
Property measured: solubility

Ask: Requested read-out: solubility. Entry: C=C(COCCP(=O)(O)OC)C(=O)O [Monomer 1]
Reply: > 500 mg/mL
